Quick reference: protein stability index of the listed items.
B1: RAB22A (parent)
chain: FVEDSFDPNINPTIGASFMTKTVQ

variants of: B1; test: protein stability index of a GFP-peptide fusion (GPS, HEK-293T) (PSI 1-6); higher = more stable; settings: c terminus: a fixed tail appended;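 also: lentivirally expressed fusions sorted by FACS into six bins by GFP to DsRed ratio, PSI derived from sequencing read proportions per bin multiplied by bin number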

Would you please look over these solved cases?
FVEDSFDPNINFTIGASFMTKTVQ [P12F]: 2
FVEDSFDPNINPTIGASFMTWTVQ [K21W]: 2.44
FVEDSFDPNINPTIGASFMTKTVN [Q24N]: 2.28
FVEDSFDPNINPTIGASFMTKTAQ [V23A]: 2.43

INPUT: What value of measured protein stability index is listed for FVIDSFDPNINPTIGASFMTKTVQ [E3I] ?
OUTPUT: 1.88

INPUT: For the variant shown here, GVEDSFDPNINPTIGASFMTKTVQ [F1G] , give the reported protein stability index.
OUTPUT: 4.4

INPUT: What measured protein stability index goes with FVEDSFDPNINPTIGASRMTKTVQ [F18R] ?
OUTPUT: 2.83

INPUT: Requested read-out: protein stability index. Entry: FVEASFDPNINPTIGASFMTKTVQ [D4A]
OUTPUT: 1.63

INPUT: Which protein stability index reading was recorded for the variant FVEDSFDPNINPTIGASFMTKTVF [Q24F] ?
OUTPUT: 1.49
